Recorded GI50 values for a group of molecules are listed next.
- System: SNB-75 CNS
- assay: NCI tumour cell line growth inhibition, 48 h

Record excerpt, results attached:
{"molecule": "CC[C@@H](C(=O)[C@H](C)[C@H](O)[C@@H](C)[C@H]1O[C@H]([C@@H](CC)C(=O)N(CC)CC)CC[C@H]1C)C1O[C@]2(C=C[C@@H](O)[C@]3(CC[C@@](C)([C@H]4CC[C@](O)(CC)[C@H](C)O4)O3)O2)[C@H](C)C[C@@H]1C (some centres undefined)", "GI50": "1.72 µM"}
{"molecule": "COc1cccc(/C=N/NC(=O)c2ccccc2N2CCCC2)c1O", "GI50": "16.9 µM"}
{"molecule": "C=C1C(=O)O[C@H]2C[C@@H]1CC/C(C)=C/CC/C(C)=C/CC[C@@]2(C)O", "GI50": "70.8 µM"}

Would you kindly look at the next entry?
Incoming: Tell me GI50 reported for `Cc1cc(O)cc(C)c1/C=C/c1cncc(C(N)=O)c1`
Outgoing: 2.81 µM
